Value source: patent US20220002291A1

// reported half-life at 0.5 μM for each item listed
Assay: Metabolic stability in mouse liver microsomes
Type: in vitro ADME
Details: pH 7.4, 0.5 μM compound, 0.5 mg/mL microsomes
Protocol: Metabolic stability of PROTACs in mouse liver microsomes. Test and control compounds were incubated at 0.5 μM with 0.5 mg/mL of liver microsomes and an NADPH-regenerating system (cofactor solution) in potassium-phosphate buffer (pH 7.4). […] At the end of the experiment, samples were analyzed by liquid chromatography with mass spectrometry (LC-MS/MS). The intrinsic clearance (CLint) was determined from the first-order elimination constant by nonlinear regression. […]
EXPERIMENTAL ENDPOINT: half-life at 0.5 μM (min)

COMPOUND | RECORDED NUMBER
CC(=O)c1c(C)c2cnc(Nc3ccc(N4CCN(C(=O)CNCCCCNC(=O)COc5cccc6c5C(=O)N(C5CCC(=O)NC5=O)C6=O)CC4)cn3)nc2n(C2CCCC2)c1=O (centres unmarked) [YX-2-107] | 35
CC(=O)c1c(C)c2cnc(Nc3ccc(N4CCN(CCNC(=O)COc5cccc6c5C(=O)N(C5CCC(=O)NC5=O)C6=O)CC4)cn3)nc2n(C2CCCC2)c1=O (centres unmarked) [AC-1-212] | 10
CC(=O)c1c(C)c2cnc(Nc3ccc(N4CCN(C(=O)CN(C)CCNC(=O)COc5cccc6c5C(=O)N(C5CCC(=O)NC5=O)C6=O)CC4)cn3)nc2n(C2CCCC2)c1=O (centres unmarked) [AC-1-027] | 2
CC(=O)c1c(C)c2cnc(Nc3ccc(N4CCNCC4)cn3)nc2n(C2CCCC2)c1=O [Palbociclib] | 56
